Listed here: items and their measured Kd.
Target: T1, recombinant human CD47 extracellular domain (ECD), His-tagged, monomer (human, UniProt Q08722 19-141)
T1 construct: C-terminal 6xHis tag; monomeric fraction from Superdex 200; also called human CD47 ECD; CD47-ECD monomer
Assay: ProteOn SPR; mAb captured, ECD monomer as analyte
Answer format: numeric, nM implied, no suffix.

Reference set (4 entries):
# Binder, Kd, nM
measured = [
    ("C47B224 (antibody, V domains shown, human IgG2sigma/kappa) VH: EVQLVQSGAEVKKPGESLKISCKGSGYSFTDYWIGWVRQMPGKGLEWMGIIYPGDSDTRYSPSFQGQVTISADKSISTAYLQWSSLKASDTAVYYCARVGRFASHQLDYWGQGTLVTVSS VL: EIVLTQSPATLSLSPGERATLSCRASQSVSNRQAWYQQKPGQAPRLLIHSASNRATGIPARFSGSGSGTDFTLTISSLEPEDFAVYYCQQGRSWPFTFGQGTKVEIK", 2.46),
    ("C47B231 (antibody, V domains shown, human IgG2sigma/kappa) VH: EVQLVQSGAEVKKPGESLKISCKGSGYSFTNYWIGWVRQMPGKGLEWMGIIYPGDSDTRYSPSFQGQVTISADKSISTAYLQWSSLKASDTAVYYCARVGRFASHQLDYWGQGTLVTVSS VL: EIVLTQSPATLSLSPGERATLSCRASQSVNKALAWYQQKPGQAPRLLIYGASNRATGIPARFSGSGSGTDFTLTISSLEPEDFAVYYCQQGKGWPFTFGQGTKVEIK", 11.3),
    ("C47B230 (antibody, V domains shown, human IgG2sigma/kappa) VH: EVQLVQSGAEVKKPGESLKISCKGSGYSFTDDWIGWVRQMPGKGLEWMGIIYPGDSDTRYSPSFQGQVTISADKSISTAYLQWSSLKASDTAVYYCARVGRFASHQLDYWGQGTLVTVSS VL: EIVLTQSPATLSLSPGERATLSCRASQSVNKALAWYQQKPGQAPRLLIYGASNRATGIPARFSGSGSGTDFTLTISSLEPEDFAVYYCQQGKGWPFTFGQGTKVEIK", 1.99),
    ("C47B229 (antibody, V domains shown, human IgG2sigma/kappa) VH: EVQLVQSGAEVKKPGESLKISCKGSGYSFDDAWIGWVRQMPGKGLEWMGIIYPGDSDTRYSPSFQGQVTISADKSISTAYLQWSSLKASDTAVYYCARVGRFASHQLDYWGQGTLVTVSS VL: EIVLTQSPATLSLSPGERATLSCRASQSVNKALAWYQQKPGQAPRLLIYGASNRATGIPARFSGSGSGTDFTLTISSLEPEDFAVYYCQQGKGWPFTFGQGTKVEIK", 2.15),
]

Now, please, on to the next binder.
For the binder C47B227 (antibody, V domains shown, human IgG2sigma/kappa) VH: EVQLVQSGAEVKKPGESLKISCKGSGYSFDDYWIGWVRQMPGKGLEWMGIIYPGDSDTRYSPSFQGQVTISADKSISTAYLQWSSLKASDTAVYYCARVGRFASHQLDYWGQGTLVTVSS VL: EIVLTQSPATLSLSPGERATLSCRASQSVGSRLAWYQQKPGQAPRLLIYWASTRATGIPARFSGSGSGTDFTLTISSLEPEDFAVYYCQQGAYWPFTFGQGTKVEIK , give its measured Kd value.
0.902
